system: MV-4-11 cells; assay: Inhibition of MV-4-11 cell proliferation (MTS, 7 days); type: cell-based; details: Homo sapiens, MV4-11, 168 h, 7 days, MTS, Table 3, read-out: MV-4-11 Cells Inhibition Activity IC50
As shown below, each of these molecules has a reported IC50 value.

{"MOLECULE": "C=Cc1ccc(-c2ncc(CNc3cccc4c3C(=O)N(C3CCC(=O)NC3=O)C4=O)s2)cc1 (centres unmarked)", "IC50": "< 1 µM"}
{"MOLECULE": "O=C1CCC(N2C(=O)c3cccc(NCc4cnc(CN5CC(N6CCOCC6)C5)o4)c3C2=O)C(=O)N1 (centres unmarked)", "IC50": "< 1 µM"}
{"MOLECULE": "O=C1CCC(N2C(=O)c3cccc(NCc4ncc(-c5ccc(Cl)cc5)o4)c3C2=O)C(=O)N1 (centres unmarked)", "IC50": "< 1 µM"}
{"MOLECULE": "O=C1CCC(N2C(=O)c3cccc(NCc4cnc(-c5ccc(Br)cc5)o4)c3C2=O)C(=O)N1 (centres unmarked)", "IC50": "< 1 µM"}
{"MOLECULE": "O=C1CCC(N2C(=O)c3cccc(NCc4cnc(-c5ccc(OC(F)(F)F)cc5)o4)c3C2=O)C(=O)N1 (centres unmarked)", "IC50": "< 1 µM"}
{"MOLECULE": "O=C1CCC(N2C(=O)c3cccc(NCc4ncc(-c5ccccc5C(F)(F)F)o4)c3C2=O)C(=O)N1 (centres unmarked)", "IC50": "1 to 20 µM"}
{"MOLECULE": "Cc1cccc(-c2ncc(CNc3cccc4c3C(=O)N(C3CCC(=O)NC3=O)C4=O)o2)c1 (centres unmarked)", "IC50": "< 1 µM"}
{"MOLECULE": "CC1(C(=O)N2CCC(c3ncc(CNc4cccc5c4C(=O)N(C4CCC(=O)NC4=O)C5=O)o3)CC2)CCC1 (centres unmarked)", "IC50": "1 to 20 µM"}
{"MOLECULE": "O=C1CCC(N2C(=O)c3cccc(NCc4cnc(C5CCN(C(=O)C6(C(F)(F)F)CCC6)CC5)o4)c3C2=O)C(=O)N1 (centres unmarked)", "IC50": "< 1 µM"}
{"MOLECULE": "O=C1CCC(N2C(=O)c3cccc(NCc4ncc(-c5cccc(Cl)c5)o4)c3C2=O)C(=O)N1 (centres unmarked)", "IC50": "< 1 µM"}
{"MOLECULE": "CC(C)(C)C(=O)OCN1C(=O)CCC(N2C(=O)c3cccc(NCc4cnc(C5CCN(C(=O)C(C)(C)C)CC5)o4)c3C2=O)C1=O (centres unmarked)", "IC50": "1 to 20 µM"}
{"MOLECULE": "O=C1CCC(N2C(=O)c3cccc(NCc4cnc(-c5ccc(Cl)cc5)s4)c3C2=O)C(=O)N1 (centres unmarked)", "IC50": "< 1 µM"}
{"MOLECULE": "Cc1ccc(-c2ncc(CNc3cccc4c3C(=O)N(C3CCC(=O)NC3=O)C4=O)o2)cc1 (centres unmarked)", "IC50": "< 1 µM"}
{"MOLECULE": "CN1CCN(Cc2ncc(CNc3cccc4c3C(=O)N(C3CCC(=O)NC3=O)C4=O)o2)CC1 (centres unmarked)", "IC50": "1 to 20 µM"}
{"MOLECULE": "O=C1CCC(N2C(=O)c3cccc(NCc4cnc(-c5ccc(F)cc5)o4)c3C2=O)C(=O)N1 (centres unmarked)", "IC50": "< 1 µM"}
{"MOLECULE": "O=C1CCC(N2C(=O)c3cccc(NCc4cnc(-c5ccccc5OC5CC5)o4)c3C2=O)C(=O)N1 (centres unmarked)", "IC50": "1 to 20 µM"}
{"MOLECULE": "[2H]c1c([2H])c([2H])c(-c2ncc(CNc3cccc4c3C(=O)N(C3CCC(=O)NC3=O)C4=O)o2)c([2H])c1[2H] (centres unmarked)", "IC50": "< 1 µM"}
{"MOLECULE": "O=C1CCC(N2C(=O)c3cccc(NCc4cnc(-c5ccc(OC6COC6)cc5)o4)c3C2=O)C(=O)N1 (centres unmarked)", "IC50": "< 1 µM"}
{"MOLECULE": "O=C1CCC(N2C(=O)c3cccc(NCc4cnc(CN5CCC(N6CCOCC6)CC5)o4)c3C2=O)C(=O)N1 (centres unmarked)", "IC50": "> 20 µM"}
{"MOLECULE": "O=C1CCC(N2C(=O)c3cccc(NCc4cnc(-c5ccc(Cl)nc5)o4)c3C2=O)C(=O)N1 (centres unmarked)", "IC50": "> 20 µM"}
{"MOLECULE": "O=C1CCC(N2C(=O)c3cccc(NCc4cnc(-c5ccc(Cl)cn5)s4)c3C2=O)C(=O)N1 (centres unmarked)", "IC50": "< 1 µM"}
{"MOLECULE": "Cc1ccc(-c2cnc(CNc3cccc4c3C(=O)N(C3CCC(=O)NC3=O)C4=O)o2)cc1 (centres unmarked)", "IC50": "< 1 µM"}
{"MOLECULE": "O=C1CCC(N2C(=O)c3cccc(NCc4cnc([C@H]5CC[C@@H](Cc6ccc(F)cc6)CC5)o4)c3C2=O)C(=O)N1 (some centres unmarked)", "IC50": "1 to 20 µM"}
{"MOLECULE": "O=C1CCC(N2C(=O)c3cccc(NCc4cnc(-c5ccc(Cl)cc5Cl)o4)c3C2=O)C(=O)N1 (centres unmarked)", "IC50": "< 1 µM"}
{"MOLECULE": "O=C1CCC(N2C(=O)c3cccc(NCc4cnc(-c5cccc(-c6ccccc6)c5)o4)c3C2=O)C(=O)N1 (centres unmarked)", "IC50": "< 1 µM"}
{"MOLECULE": "N#Cc1ccc(-c2ncc(CNc3cccc4c3C(=O)N(C3CCC(=O)NC3=O)C4=O)s2)cc1 (centres unmarked)", "IC50": "< 1 µM"}
{"MOLECULE": "O=C1CCC(N2Cc3c(OCc4ccc(CN5CCOCC5)cc4)cccc3C2=O)C(=O)N1 (centres unmarked) [CC-220, reference compound]", "IC50": "> 20 µM"}
{"MOLECULE": "O=C1CCC(N2C(=O)c3cccc(NCc4cnc([C@H]5CC[C@H](Cc6ccc(F)cc6)CC5)o4)c3C2=O)C(=O)N1 (some centres unmarked)", "IC50": "< 1 µM"}
{"MOLECULE": "O=C1CCC(N2C(=O)c3cccc(NCc4cnc(-c5cccc(F)c5)o4)c3C2=O)C(=O)N1 (centres unmarked)", "IC50": "1 to 20 µM"}
